Target: Arabidopsis thaliana SHMT
Test: SHMT activity assay (ED50 SHMT), coupled with N5,N10-CH2-THF dehydrogenase, NADH at 340 nm
Type: biochemical
Details: Table 2; values given as upper bounds
pEC50: −log10 of the molar value.
observed-property: pEC50

compound	subject-of-test	pEC50
Cc1n[nH]c2c1C(c1cc(C#N)cc(-c3ccc(C(=O)O)c(Cl)c3)c1)(C1CCC1)C(C#N)=C(N)O2 (centres unmarked)	Arabidopsis thaliana SHMT	> 8.00
CCc1n[nH]c2c1C(CC)(c1ccc(Oc3ccccc3)cc1)C(C#N)=C(N)O2 (centres unmarked)	Arabidopsis thaliana SHMT	> 6.00
Cc1n[nH]c2c1C(c1ccc(F)c(Cl)c1)(C(C)C)C(C#N)=C(N)O2 (centres unmarked)	Arabidopsis thaliana SHMT	> 7.00
COc1c(C#N)cc(C2(C3CCC3)C(C#N)=C(N)Oc3[nH]nc(C)c32)cc1C(F)(F)F (centres unmarked)	Arabidopsis thaliana SHMT	> 8.00
N#CC1=C(N)Oc2[nH]nc(C3CC3)c2C1(c1cccc(Cl)c1)C1CCC1 (centres unmarked)	Arabidopsis thaliana SHMT	> 7.00
Cc1n[nH]c2c1C(c1cc(C#N)cc(-c3cccc(C(=O)O)c3)c1)(C1CCC1)C(C#N)=C(N)O2 (centres unmarked)	Arabidopsis thaliana SHMT	> 8.00

Q: I am curious: what pEC50 value has been reported for CCC1(c2ccc(OC(F)F)cc2)C(C#N)=C(N)Oc2[nH]nc(C)c21 (centres unmarked) ?
A: > 5.00

Q: Also check CCC1(c2cc(F)cc(Cl)c2)C(C#N)=C(N)Oc2[nH]nc(C)c21 (centres unmarked)
A: > 6.00

* * *

In this section we review reported pEC50 values for a set of molecules.
Biological target: Arabidopsis thaliana SHMT
Test: SHMT activity assay (ED50 SHMT), coupled with N5,N10-CH2-THF dehydrogenase, NADH at 340 nm
Format: biochemical
Details: Table 2; values given as upper bounds
pEC50: −log10 of the molar value.

molecule	observed-property	observed
CCC1(c2cc(Cl)cc(Oc3ccccc3)c2)C(C#N)=C(N)Oc2[nH]nc(C)c21 (centres unmarked)	pEC50	> 7.00
Cc1n[nH]c2c1C(c1cc(Cl)cc(Br)c1)(C1CC1)C(C#N)=C(N)O2 (centres unmarked)	pEC50	> 7.00

Q: Fill in: pEC50 of Cc1n[nH]c2c1C(c1cc(C#N)cc(N(C)CC#N)c1)(C1CCC1)C(C#N)=C(N)O2 (centres unmarked) is ___
A: > 8.00

Q: Same read-out for CCC1(c2cccc(F)c2)C(C#N)=C(N)Oc2[nH]nc(C)c21 (racemic) [Compound 2.9.] ?
A: > 6.00

Q: Lookup CCC1(c2cccc(Cl)c2)C(C#N)=C(N)Oc2[nH]nc(C(C)C)c21 (centres unmarked)
A: > 6.00

Q: What about CCc1n[nH]c2c1C(c1cc(Cl)cc(Cl)c1)(C1CCC1)C(C#N)=C(N)O2 (centres unmarked) ?
A: > 7.00

Q: Try this molecule too: Cc1n[nH]c2c1C(c1cccc(Cl)c1)(C1CCCC1)C(C#N)=C(N)O2 (centres unmarked)
A: > 7.00

Q: Next record, please: CCC1(c2cc(Cl)cc(C#N)c2)C(C#N)=C(N)Oc2[nH]nc(C)c21 (centres unmarked)
A: > 8.00

* * *

Target: Arabidopsis thaliana SHMT
Assay: SHMT activity assay (ED50 SHMT), coupled with N5,N10-CH2-THF dehydrogenase, NADH at 340 nm
Assay type: biochemical
Settings: Table 2; values given as upper bounds
Experimental: Determination of the ED50 SHMT was carried out as described hereinunder. Purification of Arabidopsis thaliana SHMT The following buffers were used during the purification protocol: […] The rate of N5,N10-CH2-THF formation catalyzed by SHMT was monitored at 340 nm by coupling with excess N5,N10-CH2-THF dehydrogenase, which converts NAD+to NADH. […] Inhibition of initial velocity was determined by adding various inhibitors of the SHMT reaction and monitored as described. […]
Below, each entry is listed with its recorded EC50.

Examples with answers:
molecule	subject-of-test	observed
Cc1n[nH]c2c1C(c1ccc(CCC(=O)O)c(Cl)c1)(C1CCC1)C(C#N)=C(N)O2 (stereo not shown)	Arabidopsis thaliana SHMT	< 100 nM
COC(=O)c1cc(-c2cc(Cl)cc(C3(C4CCC4)C(C#N)=C(N)Oc4[nH]nc(C)c43)c2)ccc1Cl (racemic)	Arabidopsis thaliana SHMT	< 10 nM
CCC1(c2ccc(O)c([N+](=O)[O-])c2)C(C#N)=C(N)Oc2[nH]nc(C)c21 (stereo not shown)	Arabidopsis thaliana SHMT	< 1000 nM
CCC1(c2cc(C(F)(F)F)cc(C(F)(F)F)c2)C(C#N)=C(N)Oc2[nH]nc(C)c21 (stereo not shown)	Arabidopsis thaliana SHMT	< 100 nM
Cc1n[nH]c2c1C(c1cc(Cl)cc(N3CCOCC3)c1)(C1CCC1)C(C#N)=C(N)O2 (stereo not shown)	Arabidopsis thaliana SHMT	< 10 nM

Q: What measured EC50 is associated with Cc1n[nH]c2c1C(c1cc(Cl)cc(Cl)c1)(C1CCCC1)C(C#N)=C(N)O2 (stereo not shown) on Arabidopsis thaliana SHMT?
A: < 1000 nM

Q: Thanks! And CCC1(c2ccc(C(F)(F)F)cc2)C(C#N)=C(N)Oc2[nH]nc(C)c21 (stereo not shown) ?
A: < 10000 nM

Q: Please do the same for CCC1(c2cc(C#N)cc(C(F)(F)F)c2)C(C#N)=C(N)Oc2[nH]nc(C)c21 (racemic) as well.
A: < 10 nM

Q: Now the molecule CCC1(c2cc(C(F)(F)F)cc(C(F)(F)F)c2)C(C#N)=C(N)Oc2[nH]nc(C3CC3)c21 (stereo not shown)
A: < 100 nM

Q: Likewise for CCCC1(c2cc(Cl)cc(C#N)c2)C(C#N)=C(N)Oc2[nH]nc(C)c21 (stereo not shown) ?
A: < 10 nM

Q: Request: CCc1n[nH]c2c1C(CC)(c1cc(Br)cc(C#N)c1)C(C#N)=C(N)O2 (stereo not shown)
A: < 100 nM

Q: For CCC1(c2cc(Cl)cc(C#N)c2)C(C#N)=C(N)Oc2[nH]nc(OC)c21 (stereo not shown) then?
A: < 1000 nM

Q: Request: COc1cc(-c2cc(C#N)cc(C3(C4CCC4)C(C#N)=C(N)Oc4[nH]nc(C)c43)c2)ccc1C(=O)O (stereo not shown)
A: < 10 nM

* * *

Molecular target: Arabidopsis thaliana SHMT
Assay: SHMT activity assay (ED50 SHMT), coupled with N5,N10-CH2-THF dehydrogenase, NADH at 340 nm
Format: biochemical
Settings: Table 2; values given as upper bounds
pEC50: −log10 of the molar value.
observed-property: pEC50

Q: Looking for the measured pEC50 of CCCC1(c2cc(Cl)cc(C#N)c2)C(C#N)=C(N)Oc2[nH]nc(C(F)F)c21 (stereo not shown) , can you help?
A: > 8.00

Q: Follow-up item: CCCC1(c2cc(Br)cc(C#N)c2)C(C#N)=C(N)Oc2[nH]nc(CC)c21 (stereo not shown)
A: > 7.00

Q: Also CCC1(c2ccc([N+](=O)[O-])cc2)C(C#N)=C(N)Oc2[nH]nc(C)c21 (stereo not shown) ?
A: > 6.00

Q: Here is the next compound: CCC1(c2ccc(F)c(Oc3ccccc3)c2)C(C#N)=C(N)Oc2[nH]nc(C)c21 (stereo not shown)
A: > 6.00

Q: Next entry: CCc1n[nH]c2c1C(c1ccc(OC)c(Cl)c1)(C(C)C)C(C#N)=C(N)O2 (stereo not shown)
A: > 6.00

Q: Next: CCCC1(c2cc(Cl)cc(C#N)c2)C(C#N)=C(N)Oc2[nH]nc(C(C)C)c21 (stereo not shown)
A: > 8.00

Q: Likewise for CCC1(c2ccc(-c3ccccc3F)cc2)C(C#N)=C(N)Oc2[nH]nc(C)c21 (stereo not shown) ?
A: > 6.00

Q: Entry CCC1(c2ccc(F)c(F)c2)C(C#N)=C(N)Oc2[nH]nc(C)c21 (stereo not shown) please
A: > 5.00

Q: Then this compound: CCC1(c2cccc(C)c2)C(C#N)=C(N)Oc2[nH]nc(C)c21 (racemic)
A: > 5.00

* * *

Biological target: Arabidopsis thaliana SHMT
Test: SHMT activity assay (ED50 SHMT), coupled with N5,N10-CH2-THF dehydrogenase, NADH at 340 nm
Assay type: biochemical
Settings: Arabidopsis thaliana SHMT enzyme assay; values given as upper bounds
observed-property: EC50

compound	EC50
Cc1n[nH]c2c1C(c1cc(Cl)cc(N(C)C(=O)Cc3nnn[nH]3)c1)(C1CCC1)C(C#N)=C(N)O2 (centres unmarked)	< 100 nM
Cc1n[nH]c2c1C(c1cc(C#N)cc(NS(=O)(=O)C(F)(F)F)c1)(C1CCC1)C(C#N)=C(N)O2 (centres unmarked)	< 100 nM
Cc1n[nH]c2c1C(c1cc(Br)cc(Br)c1)(C(C)F)C(C#N)=C(N)O2 (centres unmarked)	< 10 nM
Cc1n[nH]c2c1C(c1cc(Cl)cc(N(C)C(=O)CCc3nnn[nH]3)c1)(C1CCC1)C(C#N)=C(N)O2 (centres unmarked)	< 100 nM
CC(=O)NCC(=O)N(C)c1cc(C#N)cc(C2(C3CCC3)C(C#N)=C(N)Oc3[nH]nc(C)c32)c1 (centres unmarked)	< 100 nM
Cc1n[nH]c2c1C(c1cc(C#N)cc(C#N)c1)(C(C)F)C(C#N)=C(N)O2 (centres unmarked)	< 100 nM
Cc1n[nH]c2c1C(c1cc(Br)cc(N(C)C(=O)CC#N)c1)(C1CCC1)C(C#N)=C(N)O2 (centres unmarked)	< 10 nM
Cc1n[nH]c2c1C(c1cc(C#N)cc(N(C)C(=O)CCCc3nnn[nH]3)c1)(C(C)C)C(C#N)=C(N)O2 (centres unmarked)	< 100 nM

Q: I have this compound here, COC(=O)c1csc(-c2cc(C#N)cc(C3(C(C)C)C(C#N)=C(N)Oc4[nH]nc(C)c43)c2)c1 (centres unmarked) , and I need its recorded EC50.
A: < 10 nM

Q: And the next one, Cc1n[nH]c2c1C(c1cc(C#N)cc(-c3cccc(C(=O)O)c3)c1)(C1(F)COC1)C(C#N)=C(N)O2 (centres unmarked) ?
A: < 10 nM
